- assay protocol: chemical genetic growth profiling, strain panel (AID 1159580);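 further: tested at 20 µM; growth read once vehicle control cultures reached saturation at 30 °C; 1 = growth at the plate median or of vehicle wells; lower values mean less growth of the strain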
- conditions used: S. cerevisiae deletion strains, growth OD, locus YDR297W, strain sur2, hits give low values
Hit rate of the full screen: of about 5,500 compounds, about 2,000 (36%) were called active. Inconclusive results (about 18%) are left out. The list shows a part of the results.
readout name: normalized growth
Answer with a bare number; do not write a unit.

-- ask Recorded normalized growth for CNC(C)C(O)c1ccccc1 (stereo unspecified) , please?
-- reply 1.01

-- ask Now consider CC(C)N(CCC(C(N)=O)(c1ccccc1)c1ccccn1)C(C)C (stereo unspecified) .
-- reply 0.0705

-- ask Further, for NC(N)=NC(=O)c1nc(Cl)c(N)nc1N ?
-- reply 1.02

-- ask Lookup CCOCN(C(=O)CCl)c1c(C)cccc1CC
-- reply 0.986

-- ask Note, next up: CC(C)[N+](C)(CCC(C(N)=O)(c1ccccc1)c1ccccc1)C(C)C
-- reply 0.991

-- ask Quick one: CCCCOc1cc(C(=O)NCCN(CC)CC)c2ccccc2n1
-- reply 0.966
